# system: Protein A, recombinant (Sigma P7837) (UniProt P38507 37-327)
# assay-remarks: SPR; single-cycle mode; aptamer 516 RU
# run-parameters: label: 3'-biotin
quantity: pKd
Convention used: pKd is expressed as -log10 of the molar concentration.

Task: Field request: pKd | item: PA#2/8 3'-biotin (structured_DNA) DNA: ATACCAGCTTATTCAATTAGCAACATGAGGGGGATAGAGGGGGTGGGTTCTCTCGGCTACAATCGTAATCAGTTAG
Output: 6.83
